# measured on: human muscarinic M1 receptor (Homo sapiens)
# Sequence (P11229 whole entry): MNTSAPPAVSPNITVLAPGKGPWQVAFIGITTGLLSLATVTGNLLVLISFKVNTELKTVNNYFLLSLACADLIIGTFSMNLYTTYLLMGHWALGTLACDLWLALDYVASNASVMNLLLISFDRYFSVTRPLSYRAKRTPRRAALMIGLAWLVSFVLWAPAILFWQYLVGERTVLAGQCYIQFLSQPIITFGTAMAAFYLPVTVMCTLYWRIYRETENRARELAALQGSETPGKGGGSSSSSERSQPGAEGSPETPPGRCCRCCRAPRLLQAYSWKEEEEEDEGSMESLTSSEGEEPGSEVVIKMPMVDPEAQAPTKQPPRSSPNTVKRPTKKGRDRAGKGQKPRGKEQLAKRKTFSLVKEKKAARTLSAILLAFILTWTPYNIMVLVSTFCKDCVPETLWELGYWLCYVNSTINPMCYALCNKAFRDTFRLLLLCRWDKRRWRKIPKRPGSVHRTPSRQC
# method summary: Alphascreen Surefire phospho-ERK1/2 functional assay, M1
# Type: cell-based
# test conditions: CHO, read-out: % Emax cf. ACh, M1, CHO cells stably expressing human M1; relative to ACh
property label: Emax (%)

- molecule: "CCOC(=O)N1CCC2(CC(N3CCC(c4cscn4)CC3)C2)C1 (single isomer, unassigned) [1-50 Isomer 2]"
  unit descriptor: "%"
  Emax: 124
- molecule: "CCOC(=O)N1CCC2(CC(N3CCC([C@@H]4CCCN4C(=O)NCCOC)CC3)C2)C1 (single isomer, unassigned) [2-31 Isomer 2]"
  unit descriptor: "%"
  Emax: 93
- molecule: "CCOC(=O)N1CCC2(CC(N3CCC(N4C(=O)OC[C@H]4CC)CC3)C2)C1 (single isomer, unassigned) [2-119 Isomer 2]"
  unit descriptor: "%"
  Emax: 85

A. CCOC(=O)N1CCC2(CC(N3CCC([C@@H]4CCCN4C(=O)N(C)C4COC4)CC3)C2)C1 (single isomer, unassigned) [2-57 Isomer 2]
B. CCOC(=O)N1CCC2(CC(N3CCC(c4cnc(OC)c(C)c4)CC3)C2)C1 (single isomer, unassigned) [3-7 Isomer 2]
[in] Could you kindly indicate whether A or B has the higher Emax value? Pick one and reply with its label.
[out] B

1. CCOC(=O)N1CCC2(CC(N3CCC(c4ccnn4C)CC3)C2)C1 (single isomer, unassigned) [1-21 Isomer 2]
2. CCOC(=O)N1CCC2(CC(N3CCC(c4ncc(C)n4C)CC3)C2)C1 (single isomer, unassigned) [1-10 Isomer 2]
3. CCOC(=O)N1CCC2(CC(N3CCC(N4CCC[C@@H]4C(=O)OC)CC3)C2)C1 (single isomer, unassigned) [2-84 Isomer 2]
4. CCOC(=O)N1CCC2(CC(N3CCC(N4CCCC4c4nnn[nH]4)CC3)C2)C1 (single isomer, unassigned) [2-128 Isomer 2]
[in] List the 4 entries from lowest Emax to highest Emax value. Show the ranking through the labels, in the order asked for.
[out] 1, 3, 2, 4

P. CCOC(=O)N1CCC2(CC(N3CCC(c4c(C)cnn4CC)CC3)C2)C1 (single isomer, unassigned) [1-59 Isomer 2]
Q. CCOC(=O)N1CCC2(CC(N3CCC(c4ccnn4CC)CC3)C2)C1 (single isomer, unassigned) [1-47 Isomer 2]
R. CCOC(=O)N1CCC2(CC(N3CCC(c4nc(C)cn4C)CC3)C2)C1 (single isomer, unassigned) [1-12 Isomer 2]
[in] Sort the 3 molecules by Emax; largest first, smallest last. Show the ranking through the labels, in the order asked for.
[out] R, P, Q

###

# measured on: human muscarinic M1 receptor (Homo sapiens)
# method summary: Alphascreen Surefire phospho-ERK1/2 functional assay, M1
# Assay type: cell-based
# test conditions: CHO cells stably expressing human M1; phospho-ERK1/2; * = variable results; read-out: pEC50 M1 (converted)
property label: EC50 (nM)

P. CCOC(=O)N1CCC2(CC(N3CCC(c4nccn4C)CC3)C2)C1 (single isomer, unassigned) [1-7 Isomer 2]
Q. CCOC(=O)N1CCC2(CC(N3CCC(c4nc(C#N)c[nH]4)CC3)C2)C1 (single isomer, unassigned) [1-4 Isomer 2]
R. CCOC(=O)N1CCC2(CC(N3CCC(c4ncco4)CC3)C2)C1 (single isomer, unassigned) [1-23 Isomer 2]
[in] Rank descending by EC50: all 3 molecules from above. Show the ranking through the labels, in the order asked for.
[out] Q, R, P

Value source: patent US9926297B2
